This collection of values is drawn from patent US20190367592A1.

For each of the binders below, state its Kd.
# Measured On: T1, recombinant human Tau monomer, 2N4R isoform (amino acids 2-441) (human, UniProt P10636-8 2-441)
# T1 construct: range 2-441; N-terminal His-tag removed with TEV protease; also called monomeric Tau
# Protocol Summary: SPR screen, hIgG captured, Tau monomer analyte
Give bare numbers, in nM.

Binder	Scale Unit	Kd
hu94B2 HC7 + LC13 (antibody, V domains shown) VH: EVQLVQSGAEVKKPGASVKVSCKASGYSLTGYTMNWVRQAPGQGLEWIGLISPYNGVTSYNQKFKGRVTITRDKSTSTAYLELSSLRSEDTAVYYCARQGAYWGQGTLVTVSS VL: DIVMTQTPLSLPVTPGQPASISCKSSQSLLDSDGKTYLNWLLQKPGQSPQRLIYLVSKLDSGVPDRFSGSGSGTDFTLKISRVEAEDVGVYYCWQGTHFPWTFGQGTKVEIK	nM	57.8
hu94B2 HC3 + LC11 (antibody, V domains shown) VH: EVQLVQSGAEVKKPGASVKVSCKASGYSLTGYTMNWVRQAPGQGLEWIGLISPYNGVTSYNQKFKGRATITVDKSTSTAYLELSSLRSEDTAVYYCARQGAYWGQGTLVTVSS VL: DVVMTQTPLSLPVTPGQPASISCKSSQSLLDSDGKTYLNWYLQKPGQSPQRLIYLVSKLDSGVPDRFSGSGSGTDFTLKISRVEAEDVGVYYCWQGTHFPWTFGQGTKVEIK	nM	69.3

Now look at this one.
(Q) Give its Kd value. Item: hu94B2 HC5 + LC15 (antibody, V domains shown) VH: EVQLVQSGAEVKKPGASVKVSCKASGYSLTGYTMNWVRQAPGQGLEWIGLISPYNGVTSYNQKFKGRATLTVDTSTSTAYLELSSLRSEDTAVYYCARQGAYWGQGTLVTVSS VL: DIVMTQTPLSLPVTPGQPASISCKSSQSLLDSDGKTYLNWYLQKPGQSPQRLIYLVSKLDSGVPDRFSGSGSGTDFTLKISRVEAEDVGVYYCWQGTHFPWTFGQGTKVEIK
(A) 72.6
